- procedure.summary: Lyophilisation solubility assay (LYSA)
- Type: physicochemical
- test.settings: phosphate buffer, pH 6.5, aqueous buffer, thermodynamic from solid, 0.05 M phosphate buffer, HPLC-UV
endpoint: solubility thermodynamic (mg/mL)

Below: 3 compounds and their reported solubility thermodynamic.
CNc1cc(F)cc2c1[nH]c1ncc(-c3cnc4c(c3)c(=O)c(C(=O)O)cn4C)c(N3CC4[C@H](CCCN4C)C3)c12 (stereo partly shown); 0.071
CNc1cc(F)c(F)c2c1[nH]c1ncc(-c3cnc4c(c3)c(=O)c(C(=O)O)cn4C)c(N3CC[C@@H](CN4CCCC4)C3)c12; 0.106
CNc1cc(F)cc2c1[nH]c1ncc(-c3cnc4c(c3)c(=O)c(C(=O)O)cn4C)c(N3CCN(C)CC3)c12; 0.052

I = CNc1cc(Cl)cc2c1[nH]c1ncc(-c3cnc4c(c3)c(=O)c(C(=O)O)cn4NC)c(N3CC[C@H]4CN(C)CC43)c12 (stereo partly shown)
II = CNc1cc(F)cc2c1[nH]c1ncc(-c3cnc4c(c3)c(=O)c(C(=O)O)cn4N3CCOCC3)c(N3CCOCC3)c12
*Q* For the two items I and II , which reports the higher solubility thermodynamic value? // output: label of the selected item
*A* I
